meta.source: patent US20230382925A1

Would you kindly list EC50 for each of these compounds?
target: CFTR (Homo sapiens, UniProt P13569); test: Membrane Potential Dye, Enteroid Assay A; format: cell-based; details: read-out: Ent. A EC50
Sequence (P13569 with tags, fused parts or gaps DEL508-508): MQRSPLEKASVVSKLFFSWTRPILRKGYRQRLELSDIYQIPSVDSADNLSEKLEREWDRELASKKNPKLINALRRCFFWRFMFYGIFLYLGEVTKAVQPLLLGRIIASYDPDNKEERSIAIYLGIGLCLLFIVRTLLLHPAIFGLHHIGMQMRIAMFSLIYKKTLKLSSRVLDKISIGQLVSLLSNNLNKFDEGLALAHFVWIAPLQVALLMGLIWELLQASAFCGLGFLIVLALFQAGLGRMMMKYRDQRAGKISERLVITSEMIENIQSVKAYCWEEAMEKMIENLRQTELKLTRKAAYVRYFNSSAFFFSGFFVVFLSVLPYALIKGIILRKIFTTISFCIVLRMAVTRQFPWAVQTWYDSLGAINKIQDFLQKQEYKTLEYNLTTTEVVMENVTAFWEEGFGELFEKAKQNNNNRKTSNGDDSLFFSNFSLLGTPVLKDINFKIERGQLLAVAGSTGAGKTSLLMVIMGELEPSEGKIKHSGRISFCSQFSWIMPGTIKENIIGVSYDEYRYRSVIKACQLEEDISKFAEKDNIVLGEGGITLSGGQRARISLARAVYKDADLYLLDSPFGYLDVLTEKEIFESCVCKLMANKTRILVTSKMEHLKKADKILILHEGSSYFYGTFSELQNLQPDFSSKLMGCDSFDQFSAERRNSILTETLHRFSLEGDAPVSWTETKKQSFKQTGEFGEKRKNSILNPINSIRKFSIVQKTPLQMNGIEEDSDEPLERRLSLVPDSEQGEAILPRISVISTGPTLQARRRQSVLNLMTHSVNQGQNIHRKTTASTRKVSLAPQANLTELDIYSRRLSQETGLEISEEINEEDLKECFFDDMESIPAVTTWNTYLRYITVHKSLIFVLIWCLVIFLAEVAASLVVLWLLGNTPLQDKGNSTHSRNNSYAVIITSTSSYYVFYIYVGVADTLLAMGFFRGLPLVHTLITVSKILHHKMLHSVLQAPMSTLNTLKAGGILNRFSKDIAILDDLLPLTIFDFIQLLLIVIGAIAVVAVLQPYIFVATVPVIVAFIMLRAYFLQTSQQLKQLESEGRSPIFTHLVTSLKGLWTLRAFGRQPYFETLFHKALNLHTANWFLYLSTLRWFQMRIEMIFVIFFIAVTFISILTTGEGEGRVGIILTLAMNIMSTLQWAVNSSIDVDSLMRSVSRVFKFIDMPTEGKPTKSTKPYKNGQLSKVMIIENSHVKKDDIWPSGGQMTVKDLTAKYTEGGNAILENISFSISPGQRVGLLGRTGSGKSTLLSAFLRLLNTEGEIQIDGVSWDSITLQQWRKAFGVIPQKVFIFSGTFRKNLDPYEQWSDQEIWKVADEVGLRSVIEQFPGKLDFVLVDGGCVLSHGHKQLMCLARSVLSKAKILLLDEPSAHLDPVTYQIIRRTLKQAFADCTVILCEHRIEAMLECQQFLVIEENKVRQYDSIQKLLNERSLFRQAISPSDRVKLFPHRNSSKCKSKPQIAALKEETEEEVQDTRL

Lookup: Give measured EC50 for Cc1cccc(C)c1-c1cc2nc(n1)NS(=O)(=O)c1cccc(c1)C(=O)N(C1CC3(CC3)C1)C(CC(F)(F)F)CO2 (single isomer, unassigned) [Compound 125] (CFTR (Homo sapiens, UniProt P13569)).
Found: < 1 µM

Lookup: Give measured EC50 for Cc1cccc(C)c1-c1cc2nc(n1)NS(=O)(=O)c1cccc(c1)C(=O)N([C@H]1C[C@@H](O)C1)[C@H](CC(C)C)CO2 (single isomer, unassigned) [Compound 43] (CFTR (Homo sapiens, UniProt P13569)).
Found: 1 to 3 µM

Lookup: Give measured EC50 for CC(C)C[C@@H]1COc2cc(-c3ccccc3-c3ccccc3)nc(n2)NS(=O)(=O)c2cccc(c2)C(=O)N1C1CC2(CCN(C)CC2)C1 [Compound 471] (CFTR (Homo sapiens, UniProt P13569)).
Found: < 1 µM

Lookup: Give measured EC50 for COC(=O)N1CCC2(CC1)CC(N1C[C@@H](C)Oc3cc(-c4c(C)cccc4C)nc(n3)NS(=O)(=O)c3cccc(c3)C1=O)C2 [Compound 312] (CFTR (Homo sapiens, UniProt P13569)).
Found: < 1 µM

Lookup: Give measured EC50 for Cc1cccc(C)c1-c1cc2nc(n1)NS(=O)(=O)c1cccc(c1)C(=O)N(C1CN(C(=O)OC(C)(C)C)C1)[C@H](CC(C)C)CO2 [Compound 334] (CFTR (Homo sapiens, UniProt P13569)).
Found: < 1 µM

Lookup: Give measured EC50 for Cc1cccc(C)c1-c1cc2nc(n1)NS(=O)(=O)c1cccc(c1)C(=O)N(C1CC3(CCN(C)CC3)C1)C[C@@H](C)O2 [Compound 179] (CFTR (Homo sapiens, UniProt P13569)).
Found: 1 to 3 µM
